- measured target: rat NPC1L1 (Rattus norvegicus, UniProt Q6T3U3)
- experiment: ^35S-2 competition binding, rat NPC1L1 transfected CHO cells
- Design: expressed in transfected cells; pCDNA3)
- experimental parameters: 5 nM ^35S-2, 2 hours at 37° C.; read-out: Recombinant rat NPC1L1 Ki
observed property: Ki (nM)

Take a look at these entries with their results.
# molecule, Ki, nM
measured = [
    ("O=C(O)[C@H]1O[C@@H](Oc2ccc([C@@H]3[C@@H](CCCc4ccc(F)cc4)C(=O)N3c3ccc(F)cc3)cc2)[C@H](O)[C@@H](O)[C@@H]1O", 2400),
    ("O=C(CC[C@H]1C(=O)N(c2ccc(F)cc2)[C@@H]1c1ccc(O[C@@H]2O[C@H](C(=O)O)[C@@H](O)[C@H](O)[C@H]2O)cc1)c1ccc(F)cc1", 84500),
    ("O=C(O)[C@H]1O[C@@H](Oc2ccc([C@@H]3[C@@H](CC[C@H](O)c4ccc(F)cc4)C(=O)N3c3ccc(F)cc3)cc2)[C@H](O)[C@@H](O)[C@@H]1O [Compound 1, Ezetimibe glucuronide]", 790),
]

A. CS(=O)(=O)NCC#Cc1ccc(N2C(=O)[C@H](CC[C@H](O)c3ccc(F)cc3)[C@H]2c2ccc(O[C@@H]3O[C@H](C(=O)O)[C@@H](O)[C@H](O)[C@H]3O)cc2)cc1
B. O=C(O)[C@H]1O[C@@H](Oc2ccc([C@@H]3[C@@H](CC[C@@H](O)c4ccc(F)cc4)C(=O)N3c3ccc(F)cc3)cc2)[C@H](O)[C@@H](O)[C@@H]1O
IN: Among A and B , which shows a numerically higher Ki result? Please reply using the label of the selected record.
OUT: B
(B: 5800 nM, A: 12 nM)

* * *

- measured target: UniProtKB A0MJA5
- Sequence (A0MJA5 1-1332): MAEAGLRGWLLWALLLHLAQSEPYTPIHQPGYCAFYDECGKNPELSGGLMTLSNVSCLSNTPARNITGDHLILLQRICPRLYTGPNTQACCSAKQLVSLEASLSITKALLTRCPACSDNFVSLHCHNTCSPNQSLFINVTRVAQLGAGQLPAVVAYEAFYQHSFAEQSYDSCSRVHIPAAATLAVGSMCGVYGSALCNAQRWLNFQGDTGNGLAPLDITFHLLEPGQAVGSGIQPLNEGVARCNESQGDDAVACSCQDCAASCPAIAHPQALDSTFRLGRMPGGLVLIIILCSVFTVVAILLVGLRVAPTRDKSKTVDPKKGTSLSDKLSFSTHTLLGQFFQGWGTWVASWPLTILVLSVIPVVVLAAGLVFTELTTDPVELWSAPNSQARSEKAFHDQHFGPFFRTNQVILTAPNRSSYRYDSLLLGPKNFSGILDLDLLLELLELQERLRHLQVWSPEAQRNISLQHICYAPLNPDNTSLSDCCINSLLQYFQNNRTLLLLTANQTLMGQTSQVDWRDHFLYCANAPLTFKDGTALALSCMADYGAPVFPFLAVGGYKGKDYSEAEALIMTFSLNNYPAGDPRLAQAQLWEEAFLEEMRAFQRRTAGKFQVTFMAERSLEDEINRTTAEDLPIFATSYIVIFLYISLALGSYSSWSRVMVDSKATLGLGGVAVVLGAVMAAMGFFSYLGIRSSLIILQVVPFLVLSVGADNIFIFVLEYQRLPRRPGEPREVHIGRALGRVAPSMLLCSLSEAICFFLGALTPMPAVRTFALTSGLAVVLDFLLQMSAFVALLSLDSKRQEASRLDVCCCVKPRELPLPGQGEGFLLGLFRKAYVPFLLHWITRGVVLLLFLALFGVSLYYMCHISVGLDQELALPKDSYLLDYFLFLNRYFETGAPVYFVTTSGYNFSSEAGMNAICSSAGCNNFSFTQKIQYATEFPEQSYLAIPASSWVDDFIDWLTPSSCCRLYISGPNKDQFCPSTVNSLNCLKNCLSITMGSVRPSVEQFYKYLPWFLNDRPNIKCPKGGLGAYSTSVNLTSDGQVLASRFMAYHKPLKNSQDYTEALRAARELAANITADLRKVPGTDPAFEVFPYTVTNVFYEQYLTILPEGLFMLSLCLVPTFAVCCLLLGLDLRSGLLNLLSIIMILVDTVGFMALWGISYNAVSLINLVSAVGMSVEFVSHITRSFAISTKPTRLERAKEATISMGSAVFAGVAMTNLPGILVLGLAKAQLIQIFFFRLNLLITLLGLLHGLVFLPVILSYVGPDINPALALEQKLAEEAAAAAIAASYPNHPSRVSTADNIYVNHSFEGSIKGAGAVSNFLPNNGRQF
- experiment: Binding assay with rhesus brush border membrane vesicles
- experimental parameters: KD at equilibrium by competition of unlabeled compound against 1, 0.5-1.25 mg/ml protein, 22-50 nM 1, more than 3 hours
observed property: Kd (nM)
# number only, unit nM dropped from output

IN: Test system UniProtKB A0MJA5; read-out Kd; what value for O=C(O)[C@H]1O[C@@H](Oc2ccc([C@@H]3[C@@H](CC[C@H](O)c4ccc(F)cc4)C(=O)N3c3ccc(F)cc3)cc2)[C@H](O)[C@@H](O)[C@@H]1O [Compound 1, Ezetimibe glucuronide] ?
OUT: 38.6

* * *

- measured target: rat brush border membrane vesicles (Rattus norvegicus, UniProt Q6T3U3)
- Construct: from tissue; host or cells: rat (male Sprague-Dawley) small-intestinal mucosa, brush border membrane vesicles
- experiment: Binding assay with rat brush border membrane vesicles
- experimental parameters: native rat intestinal brush border membranes; read-out: Rat BBMV Ki
- Text: Glass fiber filters (GF/C) were obtained from Whatman. Rate constants for binding and dissociation. Analog structures are defined in Table 12.
observed property: Ki (µM)

# compound, unit spec, numeric readout
data = [
    ("O=C(O)[C@H]1O[C@@H](Oc2ccc([C@@H]3[C@@H](CC[C@H](O)c4ccc(F)cc4)C(=O)N3c3ccc(F)cc3)cc2)[C@H](O)[C@@H](O)[C@@H]1O [Compound 1, Ezetimibe glucuronide]", "µM", 0.6),
]

A. CS(=O)(=O)NCC#Cc1ccc(N2C(=O)[C@H](CC[C@H](O)c3ccc(F)cc3)[C@H]2c2ccc(O[C@@H]3O[C@H](C(=O)O)[C@@H](O)[C@H](O)[C@H]3O)cc2)cc1
B. O=C(O)[C@H]1O[C@@H](Oc2ccc([C@@H]3[C@@H](CC[C@@H](O)c4ccc(F)cc4)C(=O)N3c3ccc(F)cc3)cc2)[C@H](O)[C@@H](O)[C@@H]1O
C. O=C(CC[C@H]1C(=O)N(c2ccc(F)cc2)[C@@H]1c1ccc(O[C@@H]2O[C@H](C(=O)O)[C@@H](O)[C@H](O)[C@H]2O)cc1)c1ccc(F)cc1
D. O=C(O)[C@H]1O[C@@H](Oc2ccc([C@@H]3[C@@H](CCCc4ccc(F)cc4)C(=O)N3c3ccc(F)cc3)cc2)[C@H](O)[C@@H](O)[C@@H]1O
IN: Order the records, beginning with the lowest Ki and ending with the highest. Record the ranking as a list of labels in the requested order.
OUT: A, D, B, C
